# TESTED TARGET: endometase (matrilysin 2, MMP-26) (Homo sapiens)
# Sequence (Q9NRE1 90-261): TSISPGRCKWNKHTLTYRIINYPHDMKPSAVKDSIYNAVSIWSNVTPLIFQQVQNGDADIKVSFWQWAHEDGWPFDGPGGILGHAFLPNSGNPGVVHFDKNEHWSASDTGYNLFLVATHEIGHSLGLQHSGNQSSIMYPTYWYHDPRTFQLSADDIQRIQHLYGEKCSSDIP
MEASURED ATTRIBUTE: IC50 (µM)

>>> numeric_readout("CCCCCCCCCCCCOS(=O)(=O)O")
110
>>> numeric_readout("CCCCCCCCCCCCCC[N+](C)(C)C")
79
